Below: a set of entries, each annotated with reported Emax.
- experimental.target: Kappa-type opioid receptor (Homo sapiens, UniProt P41145)
- Sequence (P41145 whole entry): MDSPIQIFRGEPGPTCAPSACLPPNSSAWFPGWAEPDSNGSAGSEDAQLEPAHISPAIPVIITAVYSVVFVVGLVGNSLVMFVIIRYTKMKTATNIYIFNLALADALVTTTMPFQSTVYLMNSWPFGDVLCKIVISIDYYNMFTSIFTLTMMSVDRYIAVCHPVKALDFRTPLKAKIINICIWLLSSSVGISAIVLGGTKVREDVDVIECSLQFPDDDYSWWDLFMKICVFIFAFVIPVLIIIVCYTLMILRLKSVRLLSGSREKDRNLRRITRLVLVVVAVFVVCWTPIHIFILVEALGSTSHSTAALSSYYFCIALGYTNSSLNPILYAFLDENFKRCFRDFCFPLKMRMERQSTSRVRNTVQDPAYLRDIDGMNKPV
- assay.details: Agonist activity at KOR (unknown origin) transfected in CHO cells co-expressing Galphaq15 assessed as increase in calcium mobilization by measuring maximal efficacy by Fluo-4AM dye based assay relative to control
- Type: functional, cell-based
- condition.details: filed as agonist
measurement.label: Emax (%)

INSERT INTO measurements (structure_smiles_string, measurement_label, scale_unit, measured_result) VALUES
  ('CN1C(=O)CNC(=O)[C@@H](N[C@@H](Cc2ccc(O)cc2)C(=O)O)C/C=C/CCCC[C@H](C(=O)N2CCC[C@H]2C(=O)N[C@@H](CCC(N)=O)C(=O)N[C@@H](CCCNC(=N)N)C(=O)N[C@@H](Cc2ccccc2)C(N)=O)NC(=O)[C@@H]1Cc1ccccc1', 'Emax', '%', 56.1),
  ('CN1C(=O)CNC(=O)[C@H](N[C@@H](Cc2ccc(O)cc2)C(=O)O)CCCC/C=C\C[C@@H](C(=O)N2CCC[C@H]2C(=O)N[C@@H](CCC(N)=O)C(=O)N[C@@H](CCCNC(=N)N)C(=O)N[C@@H](Cc2ccccc2)C(N)=O)NC(=O)[C@@H]1Cc1ccccc1', 'Emax', '%', 99.2),
  ('CN1C(=O)CNC(=O)[C@H](N[C@@H](Cc2ccc(O)cc2)C(=O)O)CCCC/C=C\CC[C@@H](C(=O)N2CCC[C@H]2C(=O)N[C@@H](CCC(N)=O)C(=O)N[C@@H](CCCNC(=N)N)C(=O)N[C@@H](Cc2ccccc2)C(N)=O)NC(=O)[C@@H]1Cc1ccccc1', 'Emax', '%', 128),
  ('CN1C(=O)CNC(=O)[C@H](N[C@@H](Cc2ccc(O)cc2)C(=O)O)CCC/C=C/C[C@@H](C(=O)N2CCC[C@H]2C(=O)N[C@@H](CCC(N)=O)C(=O)N[C@@H](CCCNC(=N)N)C(=O)N[C@@H](Cc2ccccc2)C(N)=O)NC(=O)[C@@H]1Cc1ccccc1', 'Emax', '%', 98.3);

====

- experimental.target: Kappa-type opioid receptor (Homo sapiens)
- assay.details: Agonist activity at KOR (unknown origin) transfected in CHO cells co-expressing Galphaq15 assessed as increase in calcium mobilization by Fluo-4AM dye based assay
measurement.label: EC50 (nM)

INSERT INTO assay_data (structure_smiles_string, measured_result) VALUES
  ('CN1C(=O)CNC(=O)[C@H](N[C@@H](Cc2ccc(O)cc2)C(=O)O)CCCC/C=C/C[C@@H](C(=O)N2CCC[C@H]2C(=O)N[C@@H](CCC(N)=O)C(=O)N[C@@H](CCCNC(=N)N)C(=O)N[C@@H](Cc2ccccc2)C(N)=O)NC(=O)[C@@H]1Cc1ccccc1', 346),
  ('CN1C(=O)CNC(=O)[C@H](N[C@@H](Cc2ccc(O)cc2)C(=O)O)CCC/C=C/C[C@@H](C(=O)N2CCC[C@H]2C(=O)N[C@@H](CCC(N)=O)C(=O)N[C@@H](CCCNC(=N)N)C(=O)N[C@@H](Cc2ccccc2)C(N)=O)NC(=O)[C@@H]1Cc1ccccc1', 124),
  ('CN1C(=O)CNC(=O)[C@H](N[C@@H](Cc2ccc(O)cc2)C(=O)O)CCCC/C=C/CC[C@@H](C(=O)N2CCC[C@H]2C(=O)N[C@@H](CCC(N)=O)C(=O)N[C@@H](CCCNC(=N)N)C(=O)N[C@@H](Cc2ccccc2)C(N)=O)NC(=O)[C@@H]1Cc1ccccc1', 132),
  ('CN1C(=O)CNC(=O)[C@H](N[C@@H](Cc2ccc(O)cc2)C(=O)O)CCC/C=C/CC[C@@H](C(=O)N2CCC[C@H]2C(=O)N[C@@H](CCC(N)=O)C(=O)N[C@@H](CCCNC(=N)N)C(=O)N[C@@H](Cc2ccccc2)C(N)=O)NC(=O)[C@@H]1Cc1ccccc1', 273);

====

Documented half-life at 10000 µM across a set of compounds
- assay.details: Metabolic stability in mouse plasma assessed as degradation half life at 10 mM measured upto 480 mins by RP-HPLC analysis
- Assay type: ADME, cell-free
measurement.label: half-life at 10000 µM (min)

INSERT INTO assay_data (structure_smiles_string, scale_unit, measured_result) VALUES
  ('CN1C(=O)CNC(=O)[C@H](N[C@@H](Cc2ccc(O)cc2)C(=O)O)CCCC/C=C\CC[C@@H](C(=O)N2CCC[C@H]2C(=O)N[C@@H](CCC(N)=O)C(=O)N[C@@H](CCCNC(=N)N)C(=O)N[C@@H](Cc2ccccc2)C(N)=O)NC(=O)[C@@H]1Cc1ccccc1', 'min', 37.5),
  ('CN1C(=O)CNC(=O)[C@@H](N[C@@H](Cc2ccc(O)cc2)C(=O)O)C/C=C/CCCC[C@H](C(=O)N2CCC[C@H]2C(=O)N[C@@H](CCC(N)=O)C(=O)N[C@@H](CCCNC(=N)N)C(=O)N[C@@H](Cc2ccccc2)C(N)=O)NC(=O)[C@@H]1Cc1ccccc1', 'min', 7.8),
  ('CN1C(=O)CNC(=O)[C@H](N[C@@H](Cc2ccc(O)cc2)C(=O)O)CCC/C=C/C[C@@H](C(=O)N2CCC[C@H]2C(=O)N[C@@H](CCC(N)=O)C(=O)N[C@@H](CCCNC(=N)N)C(=O)N[C@@H](Cc2ccccc2)C(N)=O)NC(=O)[C@@H]1Cc1ccccc1', 'min', 60.6),
  ('CN1C(=O)CNC(=O)[C@H](N[C@@H](Cc2ccc(O)cc2)C(=O)O)CCCC/C=C/CC[C@@H](C(=O)N2CCC[C@H]2C(=O)N[C@@H](CCC(N)=O)C(=O)N[C@@H](CCCNC(=N)N)C(=O)N[C@@H](Cc2ccccc2)C(N)=O)NC(=O)[C@@H]1Cc1ccccc1', 'min', 60.4);

====

- experimental.target: Neuropeptide FF receptor 2 (Homo sapiens, UniProt Q9Y5X5)
- Sequence (Q9Y5X5 whole entry): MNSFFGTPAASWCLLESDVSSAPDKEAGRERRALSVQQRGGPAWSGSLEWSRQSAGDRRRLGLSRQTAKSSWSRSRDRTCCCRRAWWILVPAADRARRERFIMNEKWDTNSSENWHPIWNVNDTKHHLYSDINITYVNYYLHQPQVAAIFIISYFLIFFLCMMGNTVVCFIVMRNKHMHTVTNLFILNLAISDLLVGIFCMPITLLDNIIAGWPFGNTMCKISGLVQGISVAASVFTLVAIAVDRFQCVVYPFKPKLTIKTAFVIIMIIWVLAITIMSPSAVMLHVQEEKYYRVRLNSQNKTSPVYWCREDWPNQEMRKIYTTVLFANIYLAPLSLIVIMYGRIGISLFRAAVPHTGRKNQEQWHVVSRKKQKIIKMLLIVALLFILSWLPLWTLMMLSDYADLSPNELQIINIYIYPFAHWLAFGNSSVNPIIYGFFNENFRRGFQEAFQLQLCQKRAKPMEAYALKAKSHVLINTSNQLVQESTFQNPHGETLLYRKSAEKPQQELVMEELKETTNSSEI
- assay.details: Agonist activity at NPFF2R (unknown origin) transfected in HEK293 cells co-expressing Galphaq15 assessed as increase in calcium mobilization by Fluo-4AM dye based assay
EC50 overview
measurement.label: EC50 (µM)

INSERT INTO measurements (structure_smiles_string, measured_result) VALUES
  ('CN1C(=O)CNC(=O)[C@H](N[C@@H](Cc2ccc(O)cc2)C(=O)O)CCC/C=C/C[C@@H](C(=O)N2CCC[C@H]2C(=O)N[C@@H](CCC(N)=O)C(=O)N[C@@H](CCCNC(=N)N)C(=O)N[C@@H](Cc2ccccc2)C(N)=O)NC(=O)[C@@H]1Cc1ccccc1', 0.0523),
  ('CN1C(=O)CNC(=O)[C@H](N[C@@H](Cc2ccc(O)cc2)C(=O)O)CCCC/C=C/CC[C@@H](C(=O)N2CCC[C@H]2C(=O)N[C@@H](CCC(N)=O)C(=O)N[C@@H](CCCNC(=N)N)C(=O)N[C@@H](Cc2ccccc2)C(N)=O)NC(=O)[C@@H]1Cc1ccccc1', 9.77),
  ('CN1C(=O)CNC(=O)[C@H](N[C@@H](Cc2ccc(O)cc2)C(=O)O)CCCC/C=C\C[C@@H](C(=O)N2CCC[C@H]2C(=O)N[C@@H](CCC(N)=O)C(=O)N[C@@H](CCCNC(=N)N)C(=O)N[C@@H](Cc2ccccc2)C(N)=O)NC(=O)[C@@H]1Cc1ccccc1', 0.144),
  ('CN1C(=O)CNC(=O)[C@H](N[C@@H](Cc2ccc(O)cc2)C(=O)O)CCCC/C=C\CC[C@@H](C(=O)N2CCC[C@H]2C(=O)N[C@@H](CCC(N)=O)C(=O)N[C@@H](CCCNC(=N)N)C(=O)N[C@@H](Cc2ccccc2)C(N)=O)NC(=O)[C@@H]1Cc1ccccc1', 1.08),
  ('CN1C(=O)CNC(=O)[C@H](N[C@@H](Cc2ccc(O)cc2)C(=O)O)CCC/C=C/CC[C@@H](C(=O)N2CCC[C@H]2C(=O)N[C@@H](CCC(N)=O)C(=O)N[C@@H](CCCNC(=N)N)C(=O)N[C@@H](Cc2ccccc2)C(N)=O)NC(=O)[C@@H]1Cc1ccccc1', 3.11),
  ('CN1C(=O)CNC(=O)[C@@H](N[C@@H](Cc2ccc(O)cc2)C(=O)O)C/C=C/CCCC[C@H](C(=O)N2CCC[C@H]2C(=O)N[C@@H](CCC(N)=O)C(=O)N[C@@H](CCCNC(=N)N)C(=O)N[C@@H](Cc2ccccc2)C(N)=O)NC(=O)[C@@H]1Cc1ccccc1', 3.76),
  ('CN1C(=O)CNC(=O)[C@H](N[C@@H](Cc2ccc(O)cc2)C(=O)O)CCCC/C=C/C[C@@H](C(=O)N2CCC[C@H]2C(=O)N[C@@H](CCC(N)=O)C(=O)N[C@@H](CCCNC(=N)N)C(=O)N[C@@H](Cc2ccccc2)C(N)=O)NC(=O)[C@@H]1Cc1ccccc1', 0.0331);

====

- experimental.target: Delta-type opioid receptor (Homo sapiens, UniProt P41143)
- Sequence (P41143 whole entry): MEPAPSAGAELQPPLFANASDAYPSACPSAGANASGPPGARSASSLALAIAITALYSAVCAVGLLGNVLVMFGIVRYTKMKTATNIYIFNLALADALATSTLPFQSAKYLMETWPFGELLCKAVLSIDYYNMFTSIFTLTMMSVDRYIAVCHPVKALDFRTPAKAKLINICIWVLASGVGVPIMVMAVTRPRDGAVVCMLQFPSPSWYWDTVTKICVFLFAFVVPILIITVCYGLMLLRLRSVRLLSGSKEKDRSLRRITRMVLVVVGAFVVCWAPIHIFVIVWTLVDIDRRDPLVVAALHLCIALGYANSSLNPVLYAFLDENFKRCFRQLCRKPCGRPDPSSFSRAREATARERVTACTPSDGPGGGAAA
- assay.details: Agonist activity at DOR (unknown origin) transfected in CHO cells co-expressing Galphaq15 assessed as increase in calcium mobilization by measuring maximal efficacy by Fluo-4AM dye based assay relative to control
- Type: functional, cell-based
- condition.details: filed as agonist
measurement.label: Emax (%)

INSERT INTO assay_data (structure_smiles_string, experimental_target, measurement_label, scale_unit, measured_result) VALUES
  ('CN1C(=O)CNC(=O)[C@H](N[C@@H](Cc2ccc(O)cc2)C(=O)O)CCCC/C=C\C[C@@H](C(=O)N2CCC[C@H]2C(=O)N[C@@H](CCC(N)=O)C(=O)N[C@@H](CCCNC(=N)N)C(=O)N[C@@H](Cc2ccccc2)C(N)=O)NC(=O)[C@@H]1Cc1ccccc1', 'Delta-type opioid receptor (Homo sapiens, UniProt P41143)', 'Emax', '%', 81.9),
  ('CN1C(=O)CNC(=O)[C@H](N[C@@H](Cc2ccc(O)cc2)C(=O)O)CCCC/C=C/CC[C@@H](C(=O)N2CCC[C@H]2C(=O)N[C@@H](CCC(N)=O)C(=O)N[C@@H](CCCNC(=N)N)C(=O)N[C@@H](Cc2ccccc2)C(N)=O)NC(=O)[C@@H]1Cc1ccccc1', 'Delta-type opioid receptor (Homo sapiens, UniProt P41143)', 'Emax', '%', 73.8),
  ('CN1C(=O)CNC(=O)[C@H](N[C@@H](Cc2ccc(O)cc2)C(=O)O)CCC/C=C/CC[C@@H](C(=O)N2CCC[C@H]2C(=O)N[C@@H](CCC(N)=O)C(=O)N[C@@H](CCCNC(=N)N)C(=O)N[C@@H](Cc2ccccc2)C(N)=O)NC(=O)[C@@H]1Cc1ccccc1', 'Delta-type opioid receptor (Homo sapiens, UniProt P41143)', 'Emax', '%', 98.2),
  ('CN1C(=O)CNC(=O)[C@@H](N[C@@H](Cc2ccc(O)cc2)C(=O)O)C/C=C/CCCC[C@H](C(=O)N2CCC[C@H]2C(=O)N[C@@H](CCC(N)=O)C(=O)N[C@@H](CCCNC(=N)N)C(=O)N[C@@H](Cc2ccccc2)C(N)=O)NC(=O)[C@@H]1Cc1ccccc1', 'Delta-type opioid receptor (Homo sapiens, UniProt P41143)', 'Emax', '%', 99.4),
  ('CN1C(=O)CNC(=O)[C@H](N[C@@H](Cc2ccc(O)cc2)C(=O)O)CCC/C=C/C[C@@H](C(=O)N2CCC[C@H]2C(=O)N[C@@H](CCC(N)=O)C(=O)N[C@@H](CCCNC(=N)N)C(=O)N[C@@H](Cc2ccccc2)C(N)=O)NC(=O)[C@@H]1Cc1ccccc1', 'Delta-type opioid receptor (Homo sapiens, UniProt P41143)', 'Emax', '%', 93),
  ('CN1C(=O)CNC(=O)[C@H](N[C@@H](Cc2ccc(O)cc2)C(=O)O)CCCC/C=C/C[C@@H](C(=O)N2CCC[C@H]2C(=O)N[C@@H](CCC(N)=O)C(=O)N[C@@H](CCCNC(=N)N)C(=O)N[C@@H](Cc2ccccc2)C(N)=O)NC(=O)[C@@H]1Cc1ccccc1', 'Delta-type opioid receptor (Homo sapiens, UniProt P41143)', 'Emax', '%', 77.3),
  ('CN1C(=O)CNC(=O)[C@H](N[C@@H](Cc2ccc(O)cc2)C(=O)O)CCCC/C=C\CC[C@@H](C(=O)N2CCC[C@H]2C(=O)N[C@@H](CCC(N)=O)C(=O)N[C@@H](CCCNC(=N)N)C(=O)N[C@@H](Cc2ccccc2)C(N)=O)NC(=O)[C@@H]1Cc1ccccc1', 'Delta-type opioid receptor (Homo sapiens, UniProt P41143)', 'Emax', '%', 97.5);

Reference source: ChEMBL document CHEMBL5356973
